B1: Zinc finger homeobox protein 3, residues 2244 to 2299; numbered along this chain, Q15911 (parent)
chain: SSRTRFTDYQLRVLQDFFDANAYPKDDEFEQLSNLLNLPTRVIVVWFQNARQKARK

# Variants of: B1
# ASSAY_INFO: abundance fitness (aPCA) (normalised: wild type 0, dead -1); higher = more abundant; growth selection in yeast, the domain comes from the species named
# ASSAY_SETUP: Homo sapiens
Cut-off -0.4 on abundance fitness, inclusive. At or above means class 1; below means class 0.

Exercise: Would you say "SSRTRFTDYQLRVLQDFFDANAYPKDDEFEQLSNNLNLPTRVIVVWFQNARQKARK" shows abundance fitness at minimum -0.4?
Key: class 1

Exercise: Please answer likewise for "SSRTRFTDYQLRVLQDLFDANAYPKDDEFEQLSNLLNLPTRVIVVWFQNARQKARK"
Key: class 1

Exercise: Entry to check: "SSRTRFTDYQLRVLQDFFDANAYPKDDEFEQLSNLLHLPTRVIVVWFQNARQKARK"
Key: class 1

Exercise: Entry to check: "SSRTRFTDYQLRVLQDFFDANRYPKDDEFEQLSNLLNLPTRVIVVWFQNARQKARK"
Key: class 1

Exercise: Could you do the same for "SSRTRFTKYQLRVLQDFFDANAYPKDDEFEQLSNLLNLPTRVIVVWFQNARQKARK" , please?
Key: class 1

Exercise: Can you check "SSRTRFVDYQLRVLQDFFDANAYPKDDEFEQLSNLLNLPTRVIVVWFQNARQKARK" next?
Key: class 0

Exercise: And for "SSRTRFTDYQLRVLQDFFDANAYPKDDCFEQLSNLLNLPTRVIVVWFQNARQKARK" ?
Key: class 0

Exercise: What about this variant? "SSRTRFTDYQSRVLQDFFDANAYPKDDEFEQLSNLLNLPTRVIVVWFQNARQKARK"
Key: class 1

Exercise: And for "SSRTRFTDYQLRVLQDFFDANAYPKDDEFEQLSWLLNLPTRVIVVWFQNARQKARK" ?
Key: class 0
